- experimentalTarget: Human C3 (human, UniProt P01024 23-1663)
- Sequence (P01024 23-1663 limits assumed): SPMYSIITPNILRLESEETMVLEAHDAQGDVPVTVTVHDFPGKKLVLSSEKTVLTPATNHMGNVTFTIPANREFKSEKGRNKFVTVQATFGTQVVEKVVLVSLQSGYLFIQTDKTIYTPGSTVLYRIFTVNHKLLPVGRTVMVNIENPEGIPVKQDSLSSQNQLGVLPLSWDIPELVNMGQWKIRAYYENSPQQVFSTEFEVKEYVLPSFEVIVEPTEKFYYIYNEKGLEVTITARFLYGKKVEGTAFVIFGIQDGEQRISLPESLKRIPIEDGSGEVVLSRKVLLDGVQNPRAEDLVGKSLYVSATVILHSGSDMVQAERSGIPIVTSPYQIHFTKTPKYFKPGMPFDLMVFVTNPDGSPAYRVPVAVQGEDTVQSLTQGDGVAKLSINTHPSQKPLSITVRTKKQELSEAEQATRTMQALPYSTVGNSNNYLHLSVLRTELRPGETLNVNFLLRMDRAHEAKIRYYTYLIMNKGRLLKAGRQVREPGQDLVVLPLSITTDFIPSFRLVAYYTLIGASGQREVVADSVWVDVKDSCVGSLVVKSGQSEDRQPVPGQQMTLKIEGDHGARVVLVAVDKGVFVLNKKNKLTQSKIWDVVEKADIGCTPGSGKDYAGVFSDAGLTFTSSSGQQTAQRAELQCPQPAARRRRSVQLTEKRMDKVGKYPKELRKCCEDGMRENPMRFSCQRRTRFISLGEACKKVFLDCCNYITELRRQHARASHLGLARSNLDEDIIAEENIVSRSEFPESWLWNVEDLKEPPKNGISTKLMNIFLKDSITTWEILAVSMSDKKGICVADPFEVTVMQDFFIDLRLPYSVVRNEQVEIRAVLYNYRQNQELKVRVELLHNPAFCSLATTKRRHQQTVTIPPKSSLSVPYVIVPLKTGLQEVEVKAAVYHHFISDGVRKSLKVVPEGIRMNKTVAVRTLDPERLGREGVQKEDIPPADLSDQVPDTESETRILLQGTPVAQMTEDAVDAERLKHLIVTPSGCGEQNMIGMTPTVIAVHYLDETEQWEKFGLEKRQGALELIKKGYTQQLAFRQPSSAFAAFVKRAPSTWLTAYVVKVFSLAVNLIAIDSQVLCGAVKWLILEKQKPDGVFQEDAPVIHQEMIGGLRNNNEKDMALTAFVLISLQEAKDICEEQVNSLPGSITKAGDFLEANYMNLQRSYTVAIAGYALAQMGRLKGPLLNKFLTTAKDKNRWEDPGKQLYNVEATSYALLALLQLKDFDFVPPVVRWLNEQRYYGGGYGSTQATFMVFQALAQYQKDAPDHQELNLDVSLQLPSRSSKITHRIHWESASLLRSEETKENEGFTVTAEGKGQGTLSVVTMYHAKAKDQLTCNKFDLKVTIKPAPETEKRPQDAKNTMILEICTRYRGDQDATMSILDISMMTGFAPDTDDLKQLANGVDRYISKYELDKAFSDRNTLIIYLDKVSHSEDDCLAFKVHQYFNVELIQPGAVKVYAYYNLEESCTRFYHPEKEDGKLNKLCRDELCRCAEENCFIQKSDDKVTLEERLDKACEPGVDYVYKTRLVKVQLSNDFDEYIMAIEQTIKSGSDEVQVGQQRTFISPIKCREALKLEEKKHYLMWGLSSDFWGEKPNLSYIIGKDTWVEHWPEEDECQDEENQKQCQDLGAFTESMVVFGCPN
- assayName: cell-based or functional assay
Starred links: 1 amine or outer side, 2 acyl side, 3 side chain; linkers in the order of their positions; H or OH if unused. Positions of bridges follow the written chain, without caps; N, C: chain ends. Non-standard residues stand in square brackets, D forms with d. Groups on a side chain read outwards from the residue. *: point of attachment. C20 diacid = O=C(O)CCCCCCCCCCCCCCCCCCC(=O)*; Trp(1-Me) = Cn1cc(C[C@H](N)C(=O)O)c2ccccc21; γGlu = O=C(O)[C@H](CCC(=O)[*:2])N[*:1]; AEEA = NCCOCCOCC(=O)O; Sar = CNCC(=O)O
Please go through the items and note down their IC50[nM], inhibition of hemolysis.

Problem: Which IC50[nM], inhibition of hemolysis is listed for ICIWQDWGEHRCTEGK (N-acetyl; C-terminal amide; disulfide C2-C12; K16 side chain bears (15-carboxy-pentadecanoyl)-[(Piperazine-1-yl)-acetyl][Peg3][Peg3]) [Compound 95] ?
Result: < 500 nM

Problem: Return reported IC50[nM], inhibition of hemolysis; argument: Ac-SEFCI[Trp(1-Me)]QDWGEHRC[Sar]EGE[AEEA][AEEA]K([γGlu-Gly-γGlu-C20 diacid])-NH2 (disulfide 4-14, also called comp 128) [Compound 128]
Result: < 100 nM

Problem: Can you look up the measured IC50[nM], inhibition of hemolysis of Ac-ICIWQDWGEHRCTGAES-NH2 (disulfide 2-12; SMILES CC[C@H](C)[C@H](NC(C)=O)C(=O)N[C@H]1CSSC[C@@H](C(=O)N[C@H](C(=O)NCC(=O)N[C@@H](C)C(=O)N[C@@H](CCC(=O)O)C(=O)N[C@@H](CO)C(N)=O)[C@@H](C)O)NC(=O)[C@H](CCCNC(=N)N)NC(=O)[C@H](Cc2c[nH]cn2)NC(=O)[C@H](CCC(=O)O)NC(=O)CNC(=O)[C@H](Cc2c[nH]c3ccccc23)NC(=O)[C@H](CC(=O)O)NC(=O)[C@H](CCC(N)=O)NC(=O)[C@H](Cc2c[nH]c3ccccc23)NC(=O)[C@H]([C@@H](C)CC)NC1=O) [Compound 15] for me?
Result: < 100 nM

Attribution: patent US20220306695A1
